system: T1, rat PTH-1R (rat PTHR endogenously expressed on UMR-106 rat osteosarcoma cells) (rat, UniProt P25961 27-591)
T1 sequence (looked up): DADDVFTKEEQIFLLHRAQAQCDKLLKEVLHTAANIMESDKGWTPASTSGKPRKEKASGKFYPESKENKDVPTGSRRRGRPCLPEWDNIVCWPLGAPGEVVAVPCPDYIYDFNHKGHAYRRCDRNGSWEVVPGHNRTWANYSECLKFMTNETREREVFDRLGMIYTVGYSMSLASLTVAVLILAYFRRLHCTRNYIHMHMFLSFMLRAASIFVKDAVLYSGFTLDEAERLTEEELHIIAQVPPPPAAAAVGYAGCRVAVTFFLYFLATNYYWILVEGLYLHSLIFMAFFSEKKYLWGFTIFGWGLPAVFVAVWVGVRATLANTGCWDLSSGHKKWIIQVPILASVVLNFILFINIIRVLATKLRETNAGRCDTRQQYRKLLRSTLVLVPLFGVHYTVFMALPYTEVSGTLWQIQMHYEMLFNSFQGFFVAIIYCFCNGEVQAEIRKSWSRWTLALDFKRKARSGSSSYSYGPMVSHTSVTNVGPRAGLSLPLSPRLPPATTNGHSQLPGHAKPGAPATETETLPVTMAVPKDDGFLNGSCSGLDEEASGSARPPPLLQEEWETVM
assay-overview: cell-based or functional assay
Where no end group is shown, it is not given here. [ ]: non-standard residue; d: D form. The star is where a group is joined. Bip(2'-Et-4'-OMe) = CCc1cc(OC)ccc1-c1ccc(C[C@H](N)C(=O)O)cc1; Arg(NO2) = N=C(NCCC[C@H](N)C(=O)O)N[N+](=O)[O-]; αMePhe(2,6-F2) = C[C@](N)(Cc1c(F)cccc1F)C(=O)O; αMePhe(2-F) = C[C@](N)(Cc1ccccc1F)C(=O)O; hhPhe = N[C@@H](CCCc1ccccc1)C(=O)O; hArg = N=C(N)NCCCC[C@H](N)C(=O)O; hCit = NC(=O)NCCCC[C@H](N)C(=O)O; NMeM = CN[C@@H](CCSC)C(=O)O; Decanoyl = CCCCCCCCCC(=O)*; Nle = CCCC[C@H](N)C(=O)O; Ac5c = NC1(C(=O)O)CCCC1; Ac3c = NC1(C(=O)O)CC1; Aib = CC(C)(N)C(=O)O
Assignment: determine reported cAMP released with respect to control, 10 nM peptide, UMR-106 cells for the given binders.

## Task Param item = [Ac5c]V[Ac3c]EIQL[Nle]HQ[hArg]AK(Decanoyl)[Bip(2'-Et-4'-OMe)][hhPhe] [Seq. ID. 637] ; retrieve measured cAMP released with respect to control, 10 nM peptide, UMR-106 cells.
## Result 98 percent of control

## Task Now the same for [Aib]V[Aib]EIQ[αMePhe(2,6-F2)][Nle]HQ[hCit]A[Arg(NO2)][αMePhe(2-F)] [Seq. ID. 461]
## Result 101 percent of control

## Task Now the same for [Ac3c]V[Aib]EIQL[NMeM]HQ[hArg]AK(Decanoyl)[Bip(2'-Et-4'-OMe)] [Seq. ID. 678]
## Result 102 percent of control
